Hey, just so you know, these numbers are from patent US7223888B2.

- ASSAYED TARGET: KOR (Cavia porcellus, UniProt P41144)
- Construct: from tissue; host or cells: guinea pig cerebellum preparation
- ASSAY DETAILS: Opioid receptor competitive binding assay, KOR (3H-U-69,593)
- Set-up: species or system guinea pig
- TEST PARAMETERS: Table 12; selectivity for MOR versus KOR
PROPERTY NAME: Ki KOR/Ki MOR
Numbers only.

Some compounds with recorded Ki KOR/Ki MOR:
NC(=O)C(Cc1ccccc1)NC(=O)C(Cc1ccccc1)C(O)/C=C/CC(O)C(N)Cc1ccc(O)cc1 (single isomer, unassigned) [(S,R,S,R)-2] : 18
NC(=O)C(Cc1ccccc1)NC(=O)C(Cc1ccccc1)C(O)/C=C\CC(O)C(N)Cc1ccc(O)cc1 (single isomer, unassigned) [(S,R,S,R)-9] : 7
NC(=O)C(Cc1ccccc1)NC(=O)C(Cc1ccccc1)C(O)/C=C/CC(O)C(N)Cc1ccc(O)cc1 (single isomer, unassigned) [(S,S,R,S)-2] : 16
NC(=O)C(Cc1ccccc1)NC(=O)C(Cc1ccccc1)C(O)/C=C/CC(O)C(N)Cc1ccc(O)cc1 (single isomer, unassigned) [(S,R,R,R)-2] : 18

// each listed compound needs a value for Ki KOR/Ki MOR
1. NC(Cc1ccc(O)cc1)C(O)C/C=C/C(O)C(Cc1ccccc1)C(=O)NCCc1ccccc1 (single isomer, unassigned) [(S,R,R,R)-10]
2. NC(=O)C(Cc1ccccc1)NC(=O)C(Cc1ccccc1)C(O)/C=C/CC(O)C(N)Cc1ccc(O)cc1 (single isomer, unassigned) [(S,S,S,R)-2]

Resp:
1. 53
2. 150

====

- ASSAYED TARGET: hDOR-1 (Homo sapiens, UniProt P41143)
- Construct: purchased Amersham Biosciences; host or cells: stably transfected HEK-293 cells (membrane preparation)
- ASSAY DETAILS: Opioid receptor competitive binding assay, DOR
- TEST PARAMETERS: read-out: Ki DOR
Field: Ki. Provide a value for each of the compounds that follow.
Numbers only, in nM.

Some compounds with recorded Ki:
NC(=O)C(Cc1ccccc1)OC(=O)C(Cc1ccccc1)C(O)/C=C/CC(O)C(N)Cc1ccc(O)cc1 [(S,S,S,R)-13] : 910
NC(=O)C(Cc1ccccc1)NC(=O)C(Cc1ccccc1)C(O)/C=C/C(O)CC(N)Cc1ccc(O)cc1 (single isomer, unassigned) [(S, R, R, S)-43] : 2500
NC(=O)C(Cc1ccccc1)NC(=O)C(Cc1ccccc1)C(O)/C=C/C(O)CC(N)Cc1ccc(O)cc1 (single isomer, unassigned) [(S, R, S, S)-43] : 2500

// each listed compound needs a value for Ki
1. NC(=O)C(Cc1ccccc1)NC(=O)C(Cc1ccccc1)C(O)CCCC(O)C(N)Cc1ccc(O)cc1 (single isomer, unassigned) [(S,S,R,R)-6]
2. NC(=O)C(Cc1ccccc1)NC(=O)C(Cc1ccccc1)C(O)/C=C/C(O)CC(N)Cc1ccc(O)cc1 (single isomer, unassigned) [(S, R, S, R)-43]
3. NC(=O)C(Cc1ccccc1)NC(=O)C(Cc1ccccc1)C(O)/C=C/C(O)CC(N)Cc1ccc(O)cc1 (single isomer, unassigned) [(R, R, S, S)-43]

Resp:
3000
740
1200

====

- ASSAYED TARGET: hDOR-1 (Homo sapiens, UniProt P41143)
- Construct: purchased Amersham Biosciences; host or cells: stably transfected HEK-293 cells (membrane preparation)
- ASSAY DETAILS: Opioid receptor competitive binding assay, DOR
- TEST PARAMETERS: read-out: Ki DOR
PROPERTY NAME: Ki (nM)
Answers are plain numbers, in nM.

Some compounds with recorded Ki:
NC(=O)C(Cc1ccccc1)NC(=O)C(Cc1ccccc1)C(O)/C=C/C(O)CC(N)Cc1ccc(O)cc1 (single isomer, unassigned) [(S, S, R, S)-43] : 1200
NC(=O)C(Cc1ccccc1)NC(=O)C(Cc1ccccc1)C(O)/C=C/C(O)CC(N)Cc1ccc(O)cc1 (single isomer, unassigned) [(R, S, R, R)-43] : 2500

Attention now turns to another entry.
Req: Given the entry NC(=O)C(Cc1ccccc1)NC(=O)C(Cc1ccccc1)C(O)CCCC(O)C(N)Cc1ccc(O)cc1 (single isomer, unassigned) [(S,R,S,R)-6] , report its measured Ki.
Resp: 4000
